Numbers sourced from paper PMC6340938.

- assayed-target: angiotensin converting enzyme (ACE) (Homo sapiens, UniProt P12821)
- Sequence (P12821 30-1306, species assumed): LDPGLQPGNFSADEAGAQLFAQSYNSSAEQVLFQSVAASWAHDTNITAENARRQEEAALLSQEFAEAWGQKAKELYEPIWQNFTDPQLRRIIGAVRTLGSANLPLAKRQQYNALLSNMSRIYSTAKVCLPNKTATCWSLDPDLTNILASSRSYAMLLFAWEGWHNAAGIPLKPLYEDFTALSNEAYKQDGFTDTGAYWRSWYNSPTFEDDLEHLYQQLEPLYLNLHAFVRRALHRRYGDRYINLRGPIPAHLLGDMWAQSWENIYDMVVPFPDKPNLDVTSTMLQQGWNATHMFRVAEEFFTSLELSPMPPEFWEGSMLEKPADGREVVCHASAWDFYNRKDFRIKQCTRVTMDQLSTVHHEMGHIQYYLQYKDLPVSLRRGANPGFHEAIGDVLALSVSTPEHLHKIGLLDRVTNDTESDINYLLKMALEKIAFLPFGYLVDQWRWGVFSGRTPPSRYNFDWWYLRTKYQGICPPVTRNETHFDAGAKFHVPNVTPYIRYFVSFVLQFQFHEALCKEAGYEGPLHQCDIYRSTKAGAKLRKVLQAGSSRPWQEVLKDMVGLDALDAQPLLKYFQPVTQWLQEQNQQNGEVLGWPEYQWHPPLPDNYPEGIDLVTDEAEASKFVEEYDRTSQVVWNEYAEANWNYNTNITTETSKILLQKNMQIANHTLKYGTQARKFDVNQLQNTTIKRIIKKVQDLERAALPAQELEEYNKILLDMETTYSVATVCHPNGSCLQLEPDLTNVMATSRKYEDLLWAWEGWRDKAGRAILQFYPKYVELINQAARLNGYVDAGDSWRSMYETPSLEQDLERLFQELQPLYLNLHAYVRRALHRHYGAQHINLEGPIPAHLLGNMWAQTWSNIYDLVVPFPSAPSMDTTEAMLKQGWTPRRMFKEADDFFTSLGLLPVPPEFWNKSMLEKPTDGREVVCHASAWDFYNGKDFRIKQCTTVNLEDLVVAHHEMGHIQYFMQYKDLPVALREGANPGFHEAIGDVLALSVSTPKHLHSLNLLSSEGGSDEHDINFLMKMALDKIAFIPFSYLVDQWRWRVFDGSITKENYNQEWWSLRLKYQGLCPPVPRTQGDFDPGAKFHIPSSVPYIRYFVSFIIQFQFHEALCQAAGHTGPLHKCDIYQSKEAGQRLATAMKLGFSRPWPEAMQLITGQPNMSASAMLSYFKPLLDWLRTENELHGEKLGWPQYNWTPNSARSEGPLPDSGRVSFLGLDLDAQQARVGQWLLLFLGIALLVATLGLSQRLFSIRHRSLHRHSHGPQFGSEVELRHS
- procedure-details: ACE inhibitory activity, HHL substrate, RP-HPLC of hippuric acid
- Format: biochemical
- conditions: synthetic peptides, purity >95%; HHL 5 mM, borate pH 8.3, 0.3 M NaCl, 37°C, 45 min, ACE 50 mU/mL; RP-HPLC 228 nm; mean, n = 3
Where no end group is shown, it is not given here.
measurement-name: IC50 (µM)

1. RADFY [RADFY, Arg-Ala-Asp-Phe-Tyr]
1350
2. RVFDGAV [RVFDGAV, Arg-Val-Phe-Asp-Gly-Ala-Val]
1010
3. TNLDWY [TNLDWY, Thr-Asn-Leu-Asp-Trp-Tyr]
1930
